- Tested on: K4 kissing-loop RNA reporter;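 further: bound reporter read as fluorescence of individual clusters on recovered sequencing chips by microscopy, with normalized cluster intensities fitted with a binding model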
- method summary: apparent KD of K4 kissing-loop reporter; higher = weaker reporter binding
- condition parameters: Eterna round: R107; input ligand: FMN 200 uM
Can you tell me apparent KD of K4 kissing-loop reporter for the items I'm about to list?
Record the value in nM, omitting the unit from your answer.

Supply measured apparent KD of K4 kissing-loop reporter of UGAUACCAGACGGCCGCCACUGGUGCAUGUCAAAGACAUGCUAACCAAAUCGUGGAGUGAUGUUCCAGGACCGGGUCUGGUAUCU [TrypBX 22 #SwitchBubble #Palindromic #StaticStem] in your reply.
235

Supply measured apparent KD of K4 kissing-loop reporter of GGGAAGGAGUGAUGUUUCUUCUGAAUUUCUAAGGAUAUACGAUGCGGUAGAAGGUAGAUGCCUUGCAGGAAAUGUUCACCACGCG [theeternabot_exclusion_KL_FMN_A_2] in your reply.
218

Supply measured apparent KD of K4 kissing-loop reporter of AAUAAAAGAUGUUUAGGAAAGCAAAUGGAAGGAGCGUGCGAAAGCACAGGUAGGUCGCCAGUGAUGUUGGCACCUGAGCAUCAAA [#SwitchBubble 18 #K4Late] in your reply.
251

Supply measured apparent KD of K4 kissing-loop reporter of AAUUAAUGUAUAGAUUAUAUACAUUAAUCAGAGGAUAUGCAUUGUUGCAGAAGGCUGAAUGCAGUGAUGUUGCAAUGGAAAUUUA [JR_SSFMNA_Sub004] in your reply.
53.8

Supply measured apparent KD of K4 kissing-loop reporter of AGAGUUAUGCGAGGAUAUGCGGUUAGUACUCAAAGAGUACUAACGCAGAGUGAUGUUCUGUGAAACACAGAAGGUGCAUAACUCA [Omei KL FMN B SS B v2] in your reply.
950

Supply measured apparent KD of K4 kissing-loop reporter of CCGCUACCCUCAGGAUAUUAAAUAUUAGUGAUGUUAAUAAACCGAUGGCGAAAGCCAUCGGUAUGUUGAGAAGGGAGGGUAGCGG [whbob_SS_FMNB__2th196] in your reply.
145
